Numbers sourced from PubChem BioAssay AID588780.

Tested on: H9c2 cardiomyocytes, 2-deoxyglucose stress, ATP luminescence, 2 h
Assay text: H9c2 cell survival under 2-deoxyglucose stress – uHTS hits, dose response (AID 588780)
Active and inactive are the calls of the source.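 The calls were made as follows: active = compounds whose fitted half-maximal concentration in the cell-protection dose series is at or below a set limit; inactive = the rest.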
Result category, one only: yes (1) (active), no (0) (inactive)

COc1ccc(N(C(=O)c2cccc([N+](=O)[O-])c2)S(=O)(=O)c2cccs2)cc1	yes (1)
CCn1c(O)c(/C=N/N=C/c2ccccc2)c2ccc(C3=NNC(=O)CC3)cc21	no (0)
O=c1[nH]nc(-c2ccc(NCCCO)c([N+](=O)[O-])c2)c2ccccc12	no (0)
CNS(=O)(=O)c1ccc2nc(NC(=O)/C=C/c3ccco3)sc2c1	no (0)
CC(OC(=O)Cc1n[nH]c(=O)c2ccccc12)C(=O)Nc1cc(Cl)cc(Cl)c1 (configuration not stated)	yes (1)
CN(C(=O)c1sc2nc(N3CCOCC3)c3c(c2c1N)CCCC3)c1ccccc1	yes (1)

input: For NC(=O)C1=C(c2ccccc2)c2ccccc2C1=O , what call appears in the results of this test?
output: no (0)

###

Tested on: H9c2 cardiomyocytes, 2-deoxyglucose stress, ATP luminescence, 2 h
Assay text: H9c2 cell survival under 2-deoxyglucose stress – uHTS hits, dose response (AID 588780)
The source made the active and inactive calls.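 Rule for the calls: active = compounds whose fitted half-maximal concentration in the cell-protection dose series is at or below a set limit; inactive = the rest.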
Result category, one only: yes = active, no = inactive

O=C(CN(C(=O)Cn1nnc(-c2cccs2)n1)c1cnc2ccccc2c1)NCC1CCCO1 (stereo unspecified)	no
COc1ccc(-c2csc(NC(=O)c3cccc(N4C(=O)CCC4=O)c3)n2)cc1OC	yes
COc1cccc(C(=O)Nc2c(C(N)=O)oc3ccccc23)c1	no
CN(CC(=O)Nc1cccc(F)c1)C(=O)CCCc1nc2ccccc2c(=O)[nH]1	no
CC(OC(=O)Cn1[nH]c(=O)c2ccccc2c1=O)C(=O)Nc1ccc(F)cc1Cl (stereo unspecified)	no

input: For COc1ccccc1NC(=O)COc1cccc2c1CCNC2=O , what call appears in the results of this test?
output: no

###

System: H9c2 cardiomyocytes, 2-deoxyglucose stress, ATP luminescence, 2 h
Assay text: H9c2 cell survival under 2-deoxyglucose stress – uHTS hits, dose response (AID 588780)
Calls of active or inactive are those of the source.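 Rule for the calls: active = compounds whose fitted half-maximal concentration in the cell-protection dose series is at or below a set limit; inactive = the rest.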
Result category, one only: class 1 for active, class 0 for inactive

Example cases with answers are listed next.
CCOC(=O)C1=C(C)NC(C)=C(C(=O)OCC)C1C(=O)OCC(=O)NC1CCCCC1	class 1
Nc1c(C(=O)N/N=C/c2cccnc2)oc2nc(-c3ccco3)cc(-c3ccco3)c12	class 0
CCOC(=O)C1CCN(c2cc3c(cc2NC(=O)c2ccc(F)cc2)n(C)c(=O)n3C)CC1	class 1
COc1ccc(CCn2c(Br)nc3c2c(=O)[nH]c(=O)n3C)cc1	class 0
O=C(CCS(=O)(=O)c1ccccc1)Nc1nc(-c2ccccn2)cs1	class 0

Could you now look at the following molecule, please?
input: For COc1cc(C(=O)N/N=C/c2ccc(OC(=O)c3ccccc3Cl)cc2)ccc1O , what call appears in the results of this test?
output: class 0

###

Tested on: H9c2 cardiomyocytes, 2-deoxyglucose stress, ATP luminescence, 2 h
Assay text: H9c2 cell survival under 2-deoxyglucose stress – uHTS hits, dose response (AID 588780)
The source made the active and inactive calls.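 Rule for the calls: active = compounds whose fitted half-maximal concentration in the cell-protection dose series is at or below a set limit; inactive = the rest.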
Result category, one only: active, inactive

CCOC(=O)Cn1c(=NC(=O)c2cc(-c3cccs3)nc3ccccc23)sc2cc(S(N)(=O)=O)ccc21	inactive
COC(=O)c1ccc(CSc2ccc3nnc(-c4cccc(F)c4)n3n2)o1	active

input: For COC(=O)c1ccc(C(C(=O)NCc2ccccc2)N(Cc2cccs2)C(=O)c2cnccn2)cc1 (stereo not drawn) , what call appears in the results of this test?
output: active
